Source of measurements: ChEMBL document CHEMBL2321839

Test system: Rattus norvegicus
Assay: Neurotoxicity in Wistar rat at 30 mg/kg, po measured at 1 hr by rotarod test
Format: toxicity, organism-based
Parameters: dose 30 mg/kg, route oral
Details: in vivo
readout: Activity

Look over these answered cases.
molecule | assay system | Activity
C=C(C)[C@@H]1CC=C(C)/C(=N/NC(=O)Nc2nnc(-c3ccc(O)cc3)o2)C1 | Rattus norvegicus | Non-toxic
CC(C)=CC/C=C(/C)C/C=N/NC(=O)Nc1nnc(-c2ccc([N+](=O)[O-])cc2)o1 | Rattus norvegicus | Non-toxic
C=C(C)[C@@H]1CC=C(C)/C(=N/NC(=O)Nc2nnc(-c3ccc([N+](=O)[O-])cc3)o2)C1 | Rattus norvegicus | Non-toxic
O=C1NC(=O)C(c2ccccc2)(c2ccccc2)N1 [PHENYTOIN] | Rattus norvegicus | Non-toxic

Here is another molecule to look at.
Lab book: Activity of C=C(C)[C@@H]1CC=C(C)/C(=N/NC(=O)Nc2nnc(-c3ccc(F)cc3)o2)C1 noted as 0%
